Tested on: HCT-116 cells
Test: Anti-tumor effect to HCT-116 tumor-bearing mouse
Assay type: in vivo
Details: dosage 30 mg/kg, oral, administration period 17 days, nude mouse
Measured T/C, listed per entry.
Form entry: value (%) — number only.

Ask: Indicate the recorded T/C value for this molecule: O=C(Nc1cn(Cc2cc(F)c(F)c(F)c2)cn1)c1ccc2c(n1)CCNC2 [Example 11]
Reply: 62

Ask: Indicate the recorded T/C value for this molecule: O=C(Nc1cn(Cc2cc(F)c(F)c(F)c2)cn1)c1cc(F)c2c(c1)CCNC2 [Example 5]
Reply: 71

Ask: Indicate the recorded T/C value for this molecule: O=C(Nc1cn(Cc2cc(F)c(F)c(F)c2)cn1)c1cnc2c(c1)CCNC2 [Example 12]
Reply: 79

Ask: Indicate the recorded T/C value for this molecule: O=C(Nc1cn(Cc2cccc(C(F)(F)F)c2)cn1)c1cnc2c(c1)CCNC2 [Example 13]
Reply: 62

Ask: Indicate the recorded T/C value for this molecule: O=C(Nc1cn(Cc2cc(F)c(F)c(F)c2)cn1)c1ccc2c(c1)CCNC2 [Example 6]
Reply: 73

Ask: Indicate the recorded T/C value for this molecule: O=C(Nc1cn(Cc2cccc(C(F)(F)F)c2)cn1)c1ccc2c(n1)CCNC2 [Example 10]
Reply: 55

Ask: Indicate the recorded T/C value for this molecule: O=C(Nc1cc2c(cn1)CNCC2)c1cn(Cc2cc(F)c(F)c(F)c2)cn1 [Example 3]
Reply: 79

* * *

Measured pIC50, listed per entry.
System: HCT-116 cells
Test: Test for inhibiting sphere-forming ability of cancer cells (in the presence of BSA)
Format: cell-based
Conditions: Homo sapiens, HCT-116, 96 h, HCT-116 spheres, non-adherent, 5% BSA, 4 days, CellTiter-Glo; read-out: IC50 (Sphere IC50 value; concentration for 50% inhibition of cell proliferation)
Lab note — pIC50 values are minus log10 of concentrations in M.

>>> observed_result("O=C(Nc1cn(Cc2cccc(OC(F)(F)F)c2)cn1)c1cnc2c(c1)CCNC2 [Example 49]")
7.15
>>> observed_result("O=C(Nc1cn(Cc2cc(F)cc(C(F)(F)F)c2)cn1)c1ccc2c(c1)CCNC2 [Example 99]")
7.22
>>> observed_result("O=C(Nc1cn(Cc2cc(F)cc(F)c2)cn1)c1cnc2c(c1)CCNC2 [Example 47]")
7.30
>>> observed_result("O=C(Nc1cn(Cc2cccc(C(F)(F)F)c2)cn1)c1ccc2c(c1)CCCN2 [Example 27]")
5.22
>>> observed_result("O=C(Nc1cn(Cc2cccc(C(F)(F)F)c2)cn1)c1cc2c(cn1)CNCC2 [Example 9]")
6.30
>>> observed_result("O=C(Nc1cn(Cc2cccc(Cl)c2)cn1)c1ccc2c(c1)CCNC2 [Example 45]")
6.18
>>> observed_result("O=C(Nc1cn(Cc2cccc(C(F)(F)F)c2)cn1)c1cc2c(s1)CNCC2 [Example 17]")
6.14
>>> observed_result("O=C(Nc1cn(Cc2ccc(Cl)c(Cl)c2)cn1)c1ccc2c(c1)CCNC2 [Example 102]")
7.22
>>> observed_result("O=C1CCc2cc(C(=O)Nc3cn(Cc4cccc(C(F)(F)F)c4)cn3)ccc2C1 [Example 110]")
6.24
>>> observed_result("O=C(Nc1cc2c(cn1)CNCC2)c1cn(Cc2cc(F)c(F)c(F)c2)cn1 [Example 3]")
7.52

Ask: Indicate the recorded pIC50 value for this compound: CN(C)c1cccc(Cn2cnc(NC(=O)c3ccc4c(c3)CCNC4)c2)c1 [Example 105]
Reply: 5.29

Ask: Indicate the recorded pIC50 value for this compound: O=C(Nc1cn(Cc2ccc(C(F)(F)F)cc2)cn1)c1cnc2c(c1)CCNC2 [Example 64]
Reply: 6.77
